# Target system: E. coli DdlB enzyme (D-alanine:D-alanine ligase) (Escherichia coli)
# Construct: made in house; host or cells: E. coli
# Assay details: biochemical
# Test parameters: tested concentration 2.4 mM; read-out: DdlB RA
Test readout: remaining activity at 2400 µM (%)
Please state the figure in %; there is no need to write the unit.

// lookup remaining activity at 2400 µM for `O=C(O)Cn1nc(C(F)(F)F)c2c1CCCC2`
95

// lookup remaining activity at 2400 µM for `Cc1ccc(CS(=O)(=O)N2CCCCC2)cc1`
88

// lookup remaining activity at 2400 µM for `CC(C)CCN1C[C@@H]2CN(C)C(=O)[C@H](C)N2C1=O`
85

// lookup remaining activity at 2400 µM for `Nc1c(C(=O)O)cnc2ccc(F)cc12`
93

// lookup remaining activity at 2400 µM for `O=C(O)Cc1nc(-c2cnccn2)n[nH]1`
102

// lookup remaining activity at 2400 µM for `NC(=O)N[C@@H](Cc1ccccc1)C(=O)O`
93

// lookup remaining activity at 2400 µM for CC(=O)c1cc2c(cc1C)NC(C)(C)CC2C (stereo not drawn)
97

// lookup remaining activity at 2400 µM for `CC(C)CS(=O)(=O)N1CCc2ccccc2C1`
73

// lookup remaining activity at 2400 µM for `CC1(C)CC(=O)c2cnc(NC3CC3)nc2C1`
89

// lookup remaining activity at 2400 µM for CCC1CCCCN1C(=O)C1CCCN1C(C)=O (stereo not drawn)
74

// lookup remaining activity at 2400 µM for `Cc1nn(C)cc1-c1cc(C(=O)O)n[nH]1`
95

// lookup remaining activity at 2400 µM for `CCC(CC)NC1=NS(=O)(=O)c2ccccc21`
100

// lookup remaining activity at 2400 µM for CC(C)N1C(=O)C2(CCCC2)C1C(=O)O (stereo not drawn)
92

// lookup remaining activity at 2400 µM for `CC(C)n1nnc2cc(C(N)=O)ccc21`
92

// lookup remaining activity at 2400 µM for `CN1CCN(C(=O)CCC(=O)O)c2cccnc21`
65

// lookup remaining activity at 2400 µM for `CNS(=O)(=O)c1ccc2c(c1)CCN2C(C)=O`
90

// lookup remaining activity at 2400 µM for `CCN(C(=O)c1n[nH]cc1Cl)c1ccccc1`
95

// lookup remaining activity at 2400 µM for `CCS(=O)(=O)Nc1c(C)cc(C)cc1C`
90

// lookup remaining activity at 2400 µM for CC1=NN(C(C#N)c2cn(C)nc2C)C(C)(C)C1 (stereo not drawn)
105

// lookup remaining activity at 2400 µM for CC1CCCN(S(=O)(=O)Cc2ccccc2)C1 (stereo not drawn)
79

// lookup remaining activity at 2400 µM for CCS(=O)(=O)N1CCCC1c1ccc(C)cc1 (stereo not drawn)
89

Hey, just so you know, these numbers are from paper PMC9718554.
